Target: PI3Kα (Homo sapiens (Human), UniProt P42336)
Sequence (P42336 whole entry): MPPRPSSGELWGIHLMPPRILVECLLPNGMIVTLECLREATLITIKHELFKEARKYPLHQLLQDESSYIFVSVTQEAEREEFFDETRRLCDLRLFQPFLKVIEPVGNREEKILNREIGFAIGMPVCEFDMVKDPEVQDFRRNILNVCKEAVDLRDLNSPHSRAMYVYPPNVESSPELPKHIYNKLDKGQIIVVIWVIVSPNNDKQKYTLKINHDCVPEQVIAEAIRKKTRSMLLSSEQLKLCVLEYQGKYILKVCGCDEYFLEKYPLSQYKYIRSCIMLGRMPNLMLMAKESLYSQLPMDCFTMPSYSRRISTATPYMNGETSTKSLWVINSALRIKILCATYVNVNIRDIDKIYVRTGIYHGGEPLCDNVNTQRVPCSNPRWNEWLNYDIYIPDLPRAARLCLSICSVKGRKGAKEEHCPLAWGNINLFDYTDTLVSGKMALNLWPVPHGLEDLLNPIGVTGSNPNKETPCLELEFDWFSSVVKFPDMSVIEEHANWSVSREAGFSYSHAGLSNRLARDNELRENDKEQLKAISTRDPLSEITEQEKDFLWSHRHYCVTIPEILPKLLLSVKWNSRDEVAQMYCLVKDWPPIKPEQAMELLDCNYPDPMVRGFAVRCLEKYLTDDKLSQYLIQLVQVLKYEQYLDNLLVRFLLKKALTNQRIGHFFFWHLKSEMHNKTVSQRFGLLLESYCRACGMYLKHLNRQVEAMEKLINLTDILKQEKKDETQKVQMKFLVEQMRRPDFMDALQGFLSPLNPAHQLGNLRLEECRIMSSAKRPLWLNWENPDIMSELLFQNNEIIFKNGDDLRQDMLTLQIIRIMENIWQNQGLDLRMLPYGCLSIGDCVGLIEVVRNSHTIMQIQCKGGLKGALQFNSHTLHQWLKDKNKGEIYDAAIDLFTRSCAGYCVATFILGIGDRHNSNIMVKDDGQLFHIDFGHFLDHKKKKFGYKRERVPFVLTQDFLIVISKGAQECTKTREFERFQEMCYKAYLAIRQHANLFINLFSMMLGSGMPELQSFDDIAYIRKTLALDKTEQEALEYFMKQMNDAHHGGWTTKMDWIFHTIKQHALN
Sequence (P27986 whole entry partner): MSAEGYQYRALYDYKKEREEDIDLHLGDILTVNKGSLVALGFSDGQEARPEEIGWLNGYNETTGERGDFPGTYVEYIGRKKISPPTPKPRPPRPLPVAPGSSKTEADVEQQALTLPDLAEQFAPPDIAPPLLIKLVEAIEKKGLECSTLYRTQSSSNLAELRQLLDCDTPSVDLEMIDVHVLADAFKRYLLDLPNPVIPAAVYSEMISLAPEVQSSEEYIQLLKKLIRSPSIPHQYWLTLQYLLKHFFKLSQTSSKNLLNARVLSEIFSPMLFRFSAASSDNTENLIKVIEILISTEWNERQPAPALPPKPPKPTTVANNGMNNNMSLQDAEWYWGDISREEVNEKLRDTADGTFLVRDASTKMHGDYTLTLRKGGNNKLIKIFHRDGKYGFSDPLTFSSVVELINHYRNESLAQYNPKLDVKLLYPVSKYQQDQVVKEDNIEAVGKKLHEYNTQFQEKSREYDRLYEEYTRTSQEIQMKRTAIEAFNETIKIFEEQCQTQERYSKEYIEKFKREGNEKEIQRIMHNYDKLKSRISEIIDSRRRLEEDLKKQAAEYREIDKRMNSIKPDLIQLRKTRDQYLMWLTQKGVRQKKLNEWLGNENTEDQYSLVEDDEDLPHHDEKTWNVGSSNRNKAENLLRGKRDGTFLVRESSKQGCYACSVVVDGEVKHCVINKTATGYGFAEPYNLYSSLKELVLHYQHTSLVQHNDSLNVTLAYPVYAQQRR
Assay: PI3Kα enzyme activity inhibition IC50 evaluation assay
Assay type: biochemical
Conditions: ratio PI3Kα vs PI3Kδ
Please use class 1 whenever α/δ selectivity is not below 100, and class 0 whenever it is.

Consider the worked cases shown below.
{"compound": "COc1ncc(-c2nc(N3CCOCC3)nc3c(CN4CCC(C(C)(C)O)CC4)csc23)cc1NS(=O)(=O)C1CC1 [Compound 50]", "assignedClass": "class 1"}
{"compound": "c1cc(-c2nc(N3CCOCC3)nc3c(CN4CCN(C5CCOCC5)CC4)csc23)c2cc[nH]c2c1 [Compound 10]", "assignedClass": "class 1"}
{"compound": "COc1ncc(-c2nc(N3CCOCC3)nc3c(CN4CCC(N5C[C@@H](C)O[C@@H](C)C5)CC4)csc23)cc1NS(C)(=O)=O [Compound 55]", "assignedClass": "class 1"}
{"compound": "COc1ncc(-c2nc(N3CCOCC3)nc3c(CN4CCN(C(C)(C)C)CC4)c(C)sc23)cc1NS(=O)(=O)C1CC1 [Compound 109]", "assignedClass": "class 1"}
{"compound": "COc1ncc(-c2nc(N3CCOCC3)nc3c(CN4CCC5(CC4)CNC5)c(C)sc23)cc1NS(C)(=O)=O [Compound 106]", "assignedClass": "class 1"}

Okay, next one:
q: hey, is α/δ selectivity for this one >= 100? COc1ncc(-c2nc(N3CCOCC3)nc3c(CN4CCC(S(C)(=O)=O)CC4)c(C)sc23)cc1NS(C)(=O)=O [Compound 139]
a: class 0

* * *

α/δ selectivity listing for selected compounds.
Target: PI3Kα (Homo sapiens (Human), UniProt P42336)
Test: PI3Kα enzyme activity inhibition IC50 evaluation assay
Assay type: biochemical
Conditions: ratio PI3Kα vs PI3Kδ
// return a plain number; no unit text

Solved cases (3 shown):
{"structureNotation": "CCOC1CCN(Cc2c(C)sc3c(-c4cnc(OC)c(NS(C)(=O)=O)c4)nc(N4CCOCC4)nc23)CC1", "α/δ selectivity": 176}
{"structureNotation": "COc1ncc(-c2nc(N3CCOCC3)nc3c(CN4CCN(C5COC5)CC4)csc23)cc1NS(C)(=O)=O", "α/δ selectivity": 34}
{"structureNotation": "COc1ncc(-c2nc(N3CCOCC3)nc3c(CN4CCC(N5CC=CC5)CC4)c(C)sc23)cc1NS(C)(=O)=O", "α/δ selectivity": 35}

Switching to the query record.
q: Given `COc1ncc(-c2nc(N3CCOCC3)nc3c(CN4CCN(C(C)=O)CC4)csc23)cc1NS(C)(=O)=O` , state its recorded α/δ selectivity.
a: 15

* * *

Documented β/δ selectivity across a set of molecules
Target: PI3Kβ (Homo sapiens (Human))
Sequence (P42338 whole entry): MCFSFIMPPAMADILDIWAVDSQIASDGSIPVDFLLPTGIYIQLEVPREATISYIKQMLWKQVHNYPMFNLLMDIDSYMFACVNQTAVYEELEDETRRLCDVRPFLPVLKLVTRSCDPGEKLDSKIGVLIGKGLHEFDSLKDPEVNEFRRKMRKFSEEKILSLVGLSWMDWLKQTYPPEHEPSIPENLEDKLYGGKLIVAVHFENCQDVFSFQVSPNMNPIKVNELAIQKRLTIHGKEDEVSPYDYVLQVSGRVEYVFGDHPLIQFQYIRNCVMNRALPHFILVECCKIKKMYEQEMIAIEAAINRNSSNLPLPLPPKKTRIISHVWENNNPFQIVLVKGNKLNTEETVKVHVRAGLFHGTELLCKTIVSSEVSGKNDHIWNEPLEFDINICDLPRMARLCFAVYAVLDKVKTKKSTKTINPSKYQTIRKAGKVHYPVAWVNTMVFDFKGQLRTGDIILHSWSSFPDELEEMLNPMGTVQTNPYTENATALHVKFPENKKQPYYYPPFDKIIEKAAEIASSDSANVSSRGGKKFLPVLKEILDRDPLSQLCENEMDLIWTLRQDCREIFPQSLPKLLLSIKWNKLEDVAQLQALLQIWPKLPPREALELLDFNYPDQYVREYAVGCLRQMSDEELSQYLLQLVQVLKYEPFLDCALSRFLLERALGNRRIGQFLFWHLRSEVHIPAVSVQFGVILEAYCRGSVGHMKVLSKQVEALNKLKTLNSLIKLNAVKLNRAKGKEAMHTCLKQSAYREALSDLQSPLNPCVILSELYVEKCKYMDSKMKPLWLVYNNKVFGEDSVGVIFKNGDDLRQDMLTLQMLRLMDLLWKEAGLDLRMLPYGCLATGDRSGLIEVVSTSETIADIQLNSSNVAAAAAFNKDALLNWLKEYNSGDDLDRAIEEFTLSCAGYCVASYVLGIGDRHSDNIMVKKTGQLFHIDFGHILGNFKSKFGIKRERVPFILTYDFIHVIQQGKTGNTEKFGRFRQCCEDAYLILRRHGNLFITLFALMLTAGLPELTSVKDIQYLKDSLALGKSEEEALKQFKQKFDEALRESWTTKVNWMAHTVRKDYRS
Sequence (P27986 whole entry partner): as the sequence (P27986 whole entry partner) above
Assay: PI3Kβ enzyme activity inhibition IC50 evaluation assay
Format: biochemical
Settings: ratio PI3Kβ vs PI3Kδ
Answer field: number only, no words.

q: Quick check: β/δ selectivity of `Cc1sc2c(-c3cccc4[nH]ccc34)nc(N3CCOCC3)nc2c1CN1CCN(C(=O)CO)CC1` ?
a: 27

q: // repeat for `COc1ncc(-c2nc(N3CCOCC3)nc3c(CN4CCC(O)CC4)c(C)sc23)cc1NS(C)(=O)=O` and report
a: 6

q: Proceed to `COc1ncc(-c2nc(N3CCOCC3)nc3c(CN4CCC(C)(C)CC4)c(C)sc23)cc1NS(C)(=O)=O`
a: 24

q: Another molecule to check: `CCN(CC)C1CCN(Cc2c(C)sc3c(-c4cnc(OC)c(NS(C)(=O)=O)c4)nc(N4CCOCC4)nc23)CC1`
a: 275

Origin of measurements: patent US9745321B2
